Biological target: human TLR9 (Homo sapiens, UniProt Q9NR96)
Sequence (Q9NR96 26-1032): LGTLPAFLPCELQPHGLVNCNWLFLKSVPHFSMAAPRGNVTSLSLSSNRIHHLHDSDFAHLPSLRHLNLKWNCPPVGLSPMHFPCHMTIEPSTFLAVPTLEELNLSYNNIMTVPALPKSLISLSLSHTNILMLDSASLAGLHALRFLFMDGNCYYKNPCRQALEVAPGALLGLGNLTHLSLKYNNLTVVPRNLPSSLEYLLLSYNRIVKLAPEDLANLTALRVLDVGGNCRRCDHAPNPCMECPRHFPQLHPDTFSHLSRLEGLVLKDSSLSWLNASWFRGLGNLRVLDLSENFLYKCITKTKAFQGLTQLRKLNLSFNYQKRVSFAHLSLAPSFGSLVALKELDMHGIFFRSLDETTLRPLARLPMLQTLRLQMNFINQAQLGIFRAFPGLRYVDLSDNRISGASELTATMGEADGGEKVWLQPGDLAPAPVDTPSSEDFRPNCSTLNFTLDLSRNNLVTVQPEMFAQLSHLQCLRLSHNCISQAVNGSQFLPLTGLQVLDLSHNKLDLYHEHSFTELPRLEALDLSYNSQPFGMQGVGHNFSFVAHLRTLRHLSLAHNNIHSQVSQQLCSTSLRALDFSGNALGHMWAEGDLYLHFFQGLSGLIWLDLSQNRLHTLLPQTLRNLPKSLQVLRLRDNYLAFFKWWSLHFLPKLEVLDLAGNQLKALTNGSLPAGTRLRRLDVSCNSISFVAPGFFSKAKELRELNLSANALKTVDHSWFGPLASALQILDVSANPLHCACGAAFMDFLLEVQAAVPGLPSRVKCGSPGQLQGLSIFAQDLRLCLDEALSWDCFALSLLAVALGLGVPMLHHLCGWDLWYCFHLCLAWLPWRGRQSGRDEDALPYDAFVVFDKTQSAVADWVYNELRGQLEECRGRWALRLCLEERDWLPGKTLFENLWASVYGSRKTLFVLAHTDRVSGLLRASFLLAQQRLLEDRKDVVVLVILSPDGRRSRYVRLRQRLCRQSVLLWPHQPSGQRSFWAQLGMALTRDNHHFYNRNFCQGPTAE
Assay: TLR9 inhibition reporter assay (HEK-Blue cells, SEAP reporter, ODN2006 stimulation)
Details: HEK-Blue cells overexpressing human TLR9, SEAP reporter, ODN2006 5 nM
pIC50: −log10 of the molar value.
measurementLabel: pIC50

Example results:
compound: CC(C)c1c(-c2cnc3c(cnn3C)c2)[nH]c2ccc(C3CCN(CC(C)(C)O)CC3)cc12 [Example 764]
pIC50: 4.30 to 6.00
--
compound: CCc1c(-c2ccnc3cnn(C)c23)[nH]c2ccc(C3CCNCC3)cc12 [Example 41]
pIC50: 4.30 to 6.00
--
compound: Cc1cc(-c2[nH]c3ccc(C4CCN(C(=O)CN(C)C)CC4)cc3c2C(C)C)c(C)n2nnnc12 [Example 469]
pIC50: 4.30 to 6.00
--
compound: CCc1c(-c2ccc3nncn3n2)[nH]c2ccc(C3CCNCC3)cc12 [Example 184]
pIC50: 6.00 to 7.00

Below: the item to evaluate.
Exam item: Any idea what its pIC50 is? The compound is Cc1cc(-c2[nH]c3ccc(C4CCNCC4)cc3c2C(C)C)c(C)n2nnnc12 [Example 74]
Marked response: 4.30 to 6.00
